Target: UniProtKB P0C7B7

- smiles notation: "N#CC1=C(C#N)C(C#N)C(C#N)=C1C#N"
  target or test system: "UniProtKB P0C7B7"
  IC50: "~100 µM"

----------
Molecular target: α1β2δ rat GABAA receptors (Rattus norvegicus, UniProt P18506+P62813+P63138)
Construct: expressed in transfected cells; host or cells: Xenopus laevis oocytes, cRNA injection
Assay: Concentration inhibition curve, α1β2δ GABAA receptors in Xenopus oocytes
Assay type: cell-based
Details: GABA EC10; n = 4
readout kind: IC50 (nM)

- smiles notation: "N#CC1=C(C#N)C(C#N)C(C#N)=C1C#N"
  target or test system: "α1β2δ rat GABAA receptors (Rattus norvegicus, UniProt P18506+P62813+P63138)"
  readout kind: "IC50"
  unit: "nM"
  assay result: 710

----------
Biological target: α1β2γ2 rat GABAA receptors (Rattus norvegicus, UniProt P18508+P62813+P63138)
Construct: expressed in transfected cells; host or cells: Xenopus laevis oocytes, cRNA injection
Format: cell-based
Conditions: membrane potential −80 mV, voltage-dependence experiment; GABA EC10; n = 3; read-out: IC50

- smiles notation: "N#CC1=C(C#N)C(C#N)C(C#N)=C1C#N"
  unit: "µM"
  IC50: 6.3

----------
Biological target: α1T261Cβ2γ2 GABAA receptor (Rattus norvegicus, UniProt P18508+P62813+P63138, T288C)
Construct: expressed in transfected cells; host or cells: Xenopus laevis oocytes, cRNA injection
Assay: Two-electrode voltage clamp, mutant α1T261Cβ2γ2 in Xenopus oocytes
Assay type: cell-based
Settings: read-out: IC50 mean ± SD for inhibition of GABA-activated current
Method: Capped cRNAs were synthesized from the linearized plasmids. A poly-A tail of about 400 residues was added to each transcript using yeast poly-A polymerase. The concentration of the cRNA was quantified on a formaldehyde gel using Radiant Red stain for visualization of the RNA. […] Currents were measured using a home-built two-electrode voltage clamp amplifier in combination with a XY-recorder or digitized using a PowerLab 2/20 (AD Instruments) using the computer program Chart. […]

- smiles notation: "N#CC1=C(C#N)C(C#N)C(C#N)=C1C#N"
  unit: "µM"
  IC50: 46.4

----------
Molecular target: α1β2γ2 rat GABAA receptors (Rattus norvegicus, UniProt P18508+P62813+P63138)
Construct: expressed in transfected cells; host or cells: Xenopus laevis oocytes, cRNA injection
Format: cell-based
Details: membrane potential −120 mV; GABA EC10; n = 3; read-out: IC50

- smiles notation: "N#CC1=C(C#N)C(C#N)C(C#N)=C1C#N"
  unit: "µM"
  IC50: 16.2

----------
Molecular target: α1β2γ2 rat GABAA receptors (Rattus norvegicus, UniProt P18508+P62813+P63138)
Construct: expressed in transfected cells; host or cells: Xenopus laevis oocytes, cRNA injection
Format: cell-based
Conditions: membrane potential −40 mV; GABA EC10; n = 3; read-out: IC50

- smiles notation: "N#CC1=C(C#N)C(C#N)C(C#N)=C1C#N"
  target or test system: "α1β2γ2 rat GABAA receptors (Rattus norvegicus, UniProt P18508+P62813+P63138)"
  IC50 [nM]: 1800

----------
Target: α1T267Cβ2γ2 GABAA receptor (Rattus norvegicus, UniProt P18508+P62813+P63138, T294C)
Assay: Two-electrode voltage clamp, mutant α1T267Cβ2γ2 in Xenopus oocytes
Details: read-out: IC50 mean ± SD for inhibition of GABA-activated current
readout kind: IC50 (nM)

- smiles notation: "N#CC1=C(C#N)C(C#N)C(C#N)=C1C#N"
  assay result: 770

----------
Target: α1T260Cβ2γ2 GABAA receptor (Rattus norvegicus, UniProt P18508+P62813+P63138, T287C)
Construct: expressed in transfected cells; host or cells: Xenopus laevis oocytes, cRNA injection
Format: cell-based
Conditions: read-out: IC50 mean ± SD for inhibition of GABA-activated current
pIC50: −log10 of the molar value.
readout kind: pIC50

- smiles notation: "N#CC1=C(C#N)C(C#N)C(C#N)=C1C#N"
  target or test system: "α1T260Cβ2γ2 GABAA receptor (Rattus norvegicus, UniProt P18508+P62813+P63138, T287C)"
  assay result: 6.07

----------
Biological target: α1V256Cβ2γ2 GABAA receptor (Rattus norvegicus, UniProt P18508+P62813+P63138, V283C)
Assay: Two-electrode voltage clamp, mutant α1V256Cβ2γ2 in Xenopus oocytes
Conditions: read-out: IC50 mean ± SD for inhibition of GABA-activated current
readout kind: IC50

- compound: "N#CC1=C(C#N)C(C#N)C(C#N)=C1C#N [PCCP^−, pentacyanocyclopentdienyl anion]"
  readout kind: "IC50"
  assay result: "62.2 µM"
